biological target: Melanocortin receptor 4 (Homo sapiens); test: Intracellular cAMP accumulation in Melanocortin 4 receptor functional assay.
Sequence (P32245 whole entry): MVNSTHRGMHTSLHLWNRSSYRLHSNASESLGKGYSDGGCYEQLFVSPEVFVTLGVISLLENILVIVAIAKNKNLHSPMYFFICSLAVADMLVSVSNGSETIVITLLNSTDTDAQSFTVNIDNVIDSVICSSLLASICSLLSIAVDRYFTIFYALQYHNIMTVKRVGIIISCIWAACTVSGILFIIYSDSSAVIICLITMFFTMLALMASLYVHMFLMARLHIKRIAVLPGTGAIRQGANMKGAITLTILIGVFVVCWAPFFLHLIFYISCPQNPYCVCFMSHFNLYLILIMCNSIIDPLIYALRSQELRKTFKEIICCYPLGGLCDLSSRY
pEC50: −log10 of the molar value. Bridge positions count the residues as written; N and C are the ends. Square brackets hold non-standard residues; d marks the D form. Peptide text beside a SMILES is read from it. Pen = CC(C)(S)[C@H](N)C(=O)O; Nle = CCCC[C@H](N)C(=O)O
I would appreciate it if you labelled entries true when pEC50 is 7 or higher, otherwise false.

Tell me whether pEC50 is at least 7 here: CC(C)[C@H](NC(=O)[C@@H](N)Cc1ccc(O)cc1)C(=O)N[C@H]1CSSC[C@H](C(=O)N[C@@H](CCCN=C(N)N)C(=O)N[C@@H](Cc2ccccc2)C(=O)NCC(N)=O)NC(=O)[C@H](Cc2c[nH]c3ccccc23)NC(=O)[C@H](CCCN=C(N)N)NC(=O)[C@H](Cc2ccccc2)NC(=O)[C@H](Cc2c[nH]cn2)NC(=O)CNC1=O false

Tell me whether pEC50 is at least 7 here: CCCC[C@H](NC(=O)[C@@H](NC(=O)[C@@H](N)Cc1ccc(O)cc1)C(C)C)C(=O)N[C@H]1CSSC[C@@H](C(=O)N[C@@H](CCCNC(=N)N)C(=O)N[C@@H](Cc2ccccc2)C(=O)NCC(N)=O)NC(=O)[C@H](Cc2c[nH]c3ccccc23)NC(=O)[C@H](CCCNC(=N)N)NC(=O)[C@H](Cc2ccccc2)NC(=O)[C@H](Cc2cnc[nH]2)NC1=O false

Tell me whether pEC50 is at least 7 here: CC(C)[C@H](NC(=O)[C@@H](N)Cc1ccc(O)cc1)C(=O)N[C@H]1CSSC[C@@H](C(=O)N[C@@H](CCCN=C(N)N)C(=O)N[C@@H](Cc2ccccc2)C(=O)NCC(N)=O)NC(=O)[C@H](Cc2c[nH]c3ccccc23)NC(=O)[C@H](CCCN=C(N)N)NC(=O)[C@H](Cc2ccccc2)NC(=O)[C@H](Cc2c[nH]cn2)NC(=O)CNC1=O true

Tell me whether pEC50 is at least 7 here: CCCC[C@H](NC(=O)[C@@H](NC(=O)[C@@H](N)Cc1ccc(O)cc1)C(C)C)C(=O)NCC(=O)N[C@@](C)(Cc1ccccc1)C(=O)N[C@@H](Cc1ccccc1)C(=O)N[C@@H](CCCN=C(N)N)C(=O)N[C@H](Cc1ccc2ccccc2c1)C(=O)N[C@@H](CC(=O)O)C(=O)N[C@@H](CCCN=C(N)N)C(=O)N[C@@H](Cc1ccccc1)C(=O)NCC(N)=O true

Tell me whether pEC50 is at least 7 here: CCCC[C@H](NC(=O)[C@@H](NC(=O)[C@@H](N)Cc1ccc(O)cc1)C(C)C)C(=O)N[C@@H]1C(=O)N[C@@H](Cc2c[nH]cn2)C(=O)N[C@@H](Cc2ccccc2)C(=O)N[C@@H](CCCN=C(N)N)C(=O)N[C@@H](Cc2c[nH]c3ccccc23)C(=O)N[C@H](C(=O)N[C@@H](CCCN=C(N)N)C(=O)N[C@@H](Cc2ccccc2)C(=O)NCC(N)=O)CSSC1(C)C (H-YV[Nle][Pen]HFRWCRFG-NH2; disulfide 4-9) false

Tell me whether pEC50 is at least 7 here: CCCC[C@H](NC(=O)[C@@H](NC(=O)[C@@H](N)Cc1ccc(O)cc1)C(C)C)C(=O)N[C@H]1CC(=O)NCCCC[C@@H](C(=O)N[C@@H](CCCN=C(N)N)C(=O)N[C@@H](Cc2ccccc2)C(=O)NCC(N)=O)NC(=O)[C@H](Cc2c[nH]c3ccccc23)NC(=O)[C@H](CCCN=C(N)N)NC(=O)[C@H](Cc2ccccc2)NC(=O)[C@H](Cc2c[nH]cn2)NC1=O false

Entry source: ChEMBL document CHEMBL1144940
